Molecular target: hERG (Homo sapiens, UniProt Q12809)
Sequence (Q12809 whole entry): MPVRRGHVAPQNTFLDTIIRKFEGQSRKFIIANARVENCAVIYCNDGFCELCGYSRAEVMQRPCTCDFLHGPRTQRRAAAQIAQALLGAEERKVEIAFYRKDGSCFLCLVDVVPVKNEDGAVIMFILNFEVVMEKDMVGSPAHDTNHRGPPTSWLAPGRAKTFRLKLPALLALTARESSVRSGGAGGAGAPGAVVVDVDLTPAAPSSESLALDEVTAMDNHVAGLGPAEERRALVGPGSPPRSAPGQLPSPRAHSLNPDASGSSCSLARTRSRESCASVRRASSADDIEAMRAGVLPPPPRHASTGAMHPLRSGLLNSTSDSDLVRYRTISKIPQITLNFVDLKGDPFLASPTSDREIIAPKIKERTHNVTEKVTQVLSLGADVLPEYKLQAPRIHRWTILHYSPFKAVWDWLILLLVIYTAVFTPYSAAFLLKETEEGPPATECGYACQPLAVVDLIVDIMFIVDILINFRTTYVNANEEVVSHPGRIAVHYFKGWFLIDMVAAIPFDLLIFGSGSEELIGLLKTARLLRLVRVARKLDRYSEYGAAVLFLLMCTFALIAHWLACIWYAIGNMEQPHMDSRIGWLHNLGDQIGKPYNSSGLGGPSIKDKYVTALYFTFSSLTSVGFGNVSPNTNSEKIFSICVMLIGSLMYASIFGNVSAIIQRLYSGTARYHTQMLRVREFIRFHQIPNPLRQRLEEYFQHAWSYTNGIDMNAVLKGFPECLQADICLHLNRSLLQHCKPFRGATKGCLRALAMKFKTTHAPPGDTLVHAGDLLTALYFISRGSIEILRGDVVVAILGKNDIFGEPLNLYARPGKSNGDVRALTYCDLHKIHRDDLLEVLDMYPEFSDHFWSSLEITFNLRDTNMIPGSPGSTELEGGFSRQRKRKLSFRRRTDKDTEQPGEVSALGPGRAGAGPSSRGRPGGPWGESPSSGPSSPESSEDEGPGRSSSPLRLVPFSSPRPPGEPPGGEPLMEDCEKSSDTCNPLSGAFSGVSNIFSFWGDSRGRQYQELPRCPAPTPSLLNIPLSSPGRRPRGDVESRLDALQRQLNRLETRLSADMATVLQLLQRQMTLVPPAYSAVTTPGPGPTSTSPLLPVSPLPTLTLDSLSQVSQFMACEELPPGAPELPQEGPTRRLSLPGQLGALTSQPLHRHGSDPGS
Assay: in vitro
Conditions: read-out: IC50 (μM), hERG ion channel block; Example 46; 5 min exposure per concentration
MEASURED_METRIC: IC50 (µM)

>>> df
                                        smi  measurement
0  CNS(=O)(=O)Nc1nccc(Cc2c(CN(C)C)c3ccc(OC(=O)N(C)C)cc3oc2=O)c1F          4.2
1  CNS(=O)(=O)Nc1cccc(Cc2c(CN(C)C)c3ccc(OC(=O)N(C)C)cc3oc2=O)c1F         22.4
2  CCCS(=O)(=O)Nc1cccc(Cc2c(CN3CCNCC3)c3cc(Cl)c(OC(=O)N(C)C)cc3oc2=O)c1F          1.5

* * *

This listing pairs compounds with measured % Remaining At T120.
Tested on: cynomolgus monkey hepatocytes
Assay: Hepatocyte stability, cynomolgus monkey
Format: in vitro ADME
Details: 2 μM, 0.5 million cells/ml
Structures can show the parent of a compound that is named as a salt.
MEASURED_METRIC: % Remaining At T120 (%)

In [3]: df
Out[3]:
                                   compound  measurement
0  CCN(C)Cc1c(Cc2cccc(NS(=O)(=O)NC)c2F)c(=O)oc2cc(OC(=O)N(C)C)c(F)cc12 [Compound 238]         23.3
1  CNS(=O)(=O)Nc1nccc(Cc2c(CN(C)C)c3ccc(OC(=O)N(C)C)cc3oc2=O)c1F [Compound 124]         49.2
2  CCN(C)Cc1c(Cc2cccc(NS(=O)(=O)NC)c2Cl)c(=O)oc2cc(OC(=O)N(C)C)ccc12 [Compound 245]          3.3
3  CNS(=O)(=O)Nc1cccc(Cc2c(CN(C)C)c3ccc(OC(=O)N(C)C)cc3oc2=O)c1Cl [Compound 274]         24.5
4  CCS(=O)(=O)Nc1cccc(Cc2c(CN(C)C)c3ccc(OC(=O)N(C)C)cc3oc2=O)c1F [Compound 120]         31.6
5  CCS(=O)(=O)Nc1cccc(Cc2c(CN3CCNCC3)c3cc(Cl)c(OC(=O)N(C)C)cc3oc2=O)c1Cl [Compound 257, hydrochloride]         62.8
6  CNS(=O)(=O)Nc1cccc(Cc2c(CN3CCNCC3)c3cc(Cl)c(OC(=O)N(C)C)cc3oc2=O)c1Cl [Compound 256, hydrochloride]         53.9

* * *

Test system: phospho-ERK in A549 (KRAS G12S) cells
Assay: Cell-based pERK (pERK:tERK) in A549 cells
Details: Homo sapiens, A549, 2 h, read-out: A549-pERK (10 nM, 2 h)
Recorded measurements of activity at 0.01 µM, one per entry
MEASURED_METRIC: activity at 0.01 µM (%)

>>> df
                                        smi                      system_under_test  result_units  measurement
0  CN(C)Cc1c(Cc2cccc(NS(=O)(=O)CC(F)(F)F)c2F)c(=O)oc2cc(OC(=O)N(C)C)c(F)cc12  phospho-ERK in A549 (KRAS G12S) cells             %         94.1
1  CCN(C)Cc1c(Cc2cccc(NS(=O)(=O)CC(F)(F)F)c2F)c(=O)oc2cc(OC(=O)N(C)C)c(F)cc12  phospho-ERK in A549 (KRAS G12S) cells             %          114
2  CN(C)C(=O)Oc1cc2oc(=O)c(Cc3cccc(NS(=O)(=O)CC(F)(F)F)c3F)c(CN3CCNCC3)c2cc1Cl  phospho-ERK in A549 (KRAS G12S) cells             %          105
3  CCN(C)Cc1c(Cc2cccc(NS(=O)(=O)NC)c2Cl)c(=O)oc2cc(OC(=O)N(C)C)ccc12  phospho-ERK in A549 (KRAS G12S) cells             %         68.8
4  CCS(=O)(=O)Nc1cccc(Cc2c(CN(C)CCF)c3ccc(OC(=O)N(C)C)cc3oc2=O)c1F  phospho-ERK in A549 (KRAS G12S) cells             %         96.6
5  CN(C)C(=O)Oc1cc2oc(=O)c(Cc3cccc(NS(=O)(=O)CC(F)(F)F)c3F)c(CN3CCNCC3)c2cc1F  phospho-ERK in A549 (KRAS G12S) cells             %         96.1
6  CNS(=O)(=O)Nc1cccc(Cc2c(CN(C)C)c3ccc(OC(=O)N(C)C)cc3oc2=O)c1Br  phospho-ERK in A549 (KRAS G12S) cells             %         80.9

* * *

System: beagle dog hepatocytes
Assay: Hepatocyte stability, beagle dog
Type: in vitro ADME
Conditions: 2 μM, 0.5 million cells/ml
Mark T for CLint (mL/min/kg) under 40 mL/min/kg, F if at or over.

>>> print(df.to_string())
                                   compound  class_name
0  CNS(=O)(=O)Nc1cccc(Cc2c(CN(C)C)c3ccc(OC(=O)N(C)C)cc3oc2=O)c1F [Compound 9]           T
1  CNS(=O)(=O)Nc1cccc(Cc2c(CN(C)C)c3cc(F)c(OC(=O)N(C)C)cc3oc2=O)c1F [Compound 25]           F
2  CCCS(=O)(=O)Nc1cccc(Cc2c(CN3CCNCC3)c3cc(Cl)c(OC(=O)N(C)C)cc3oc2=O)c1F [Compound 167]           F
3  CNS(=O)(=O)Nc1nccc(Cc2c(CN(C)C)c3ccc(OC(=O)N(C)C)cc3oc2=O)c1F [Compound 124]           F
4  CNS(=O)(=O)Nc1cccc(Cc2c(CN3CCNCC3)c3cc(F)c(OC(=O)N(C)C)cc3oc2=O)c1F [Compound 134]           T
5  CCS(=O)(=O)Nc1cccc(Cc2c(CN(C)C)c3ccc(OC(=O)N(C)C)cc3oc2=O)c1F [Compound 120]           F

* * *

Experiment: Plasma stability, rat plasma (Wistar Han / wistar hannover; Table 5 head SD Rat)
Assay type: in vitro ADME
Details: wistar hannover rat plasma, 2 μM, anti-coagulant K2-EDTA, 120 min
Where a name gives a salt, the structure may show the parent alone.
The following molecules are shown together with reported % Remaining at T120 values.
MEASURED_METRIC: % Remaining at T120 (%)

                                    molecule      measured_metric  measurement
 0  CCS(=O)(=O)Nc1cccc(Cc2c(CN3CCNCC3)c3cc(Cl)c(OC(=O)N(C)C)cc3oc2=O)c1Cl [Compound 257, hydrochloride]  % Remaining at T120         91.5
 1  CNS(=O)(=O)Nc1cccc(Cc2c(CN3CCNCC3)c3cc(F)c(OC(=O)N(C)C)cc3oc2=O)c1F  % Remaining at T120         95.2
 2  CCN(C)Cc1c(Cc2cccc(NS(=O)(=O)NC)c2F)c(=O)oc2cc(OC(=O)N(C)C)c(F)cc12  % Remaining at T120         95.5
 3  CNS(=O)(=O)Nc1cccc(Cc2c(CN3CCNCC3)c3ccc(OC(=O)N(C)C)cc3oc2=O)c1Cl [Compound 246, hydrochloride]  % Remaining at T120         99.3
 4  CCCS(=O)(=O)Nc1cccc(Cc2c(CN3CCNCC3)c3cc(Cl)c(OC(=O)N(C)C)cc3oc2=O)c1F  % Remaining at T120        106.9
 5  CNS(=O)(=O)Nc1nccc(Cc2c(CN(C)C)c3ccc(OC(=O)N(C)C)cc3oc2=O)c1F  % Remaining at T120        100.3
 6  CNS(=O)(=O)Nc1cccc(Cc2c(CN(C)C)c3ccc(OC(=O)N(C)C)cc3oc2=O)c1F  % Remaining at T120         93.4
 7  CCS(=O)(=O)Nc1cccc(Cc2c(CN(C)C)c3ccc(OC(=O)N(C)C)cc3oc2=O)c1F  % Remaining at T120         96.8
 8  CNS(=O)(=O)Nc1cccc(Cc2c(CN(C)C)c3cc(F)c(OC(=O)N(C)C)cc3oc2=O)c1F  % Remaining at T120         95.5
 9  CNS(=O)(=O)Nc1cccc(Cc2c(CN(C)C)c3ccc(OC(=O)N(C)C)cc3oc2=O)c1Cl  % Remaining at T120         97.7
10  CCN(C)Cc1c(Cc2cccc(NS(=O)(=O)NC)c2Cl)c(=O)oc2cc(OC(=O)N(C)C)ccc12  % Remaining at T120         96.6
11  CNS(=O)(=O)Nc1cccc(Cc2c(CN3CCNCC3)c3cc(Cl)c(OC(=O)N(C)C)cc3oc2=O)c1Cl [Compound 256, hydrochloride]  % Remaining at T120         97.2
